target: AKR1C1 (Homo sapiens, UniProt Q04828); test: Enzyme activity (NADPH) assay with s-tetralol, recombinant GST-AKR1C1; assay type: biochemical; set-up: made in house; host or cells: Escherichia coli JM109; settings: 2 μM compound; Supplementary Table 1
Measured Quantity: % inhibition (%)

Example entries begin here.
{"columns": ["Compound", "% inhibition [%]"],
 "data": [
  ["CC(C)=CCc1cc2c(cc1O)oc(=O)c1c3ccc(O)cc3oc21", 2.25],
  ["COc1cc(C(=O)OCCCCN=C(N)N)cc(OC)c1O.Cl [Leonurine hydrochloride]", 40.77],
  ["COc1cc2c(c(OC)c1OC)-c1c(cc3c(c1OC)OCO3)CC(C)C(C)C2 (stereo not shown)", -23.91],
  ["O=C(O[C@@H]1Cc2c(O)cc(O)cc2O[C@@H]1c1ccc(O)c(O)c1)c1cc(O)c(O)c(O)c1 [(−)-Epicatechin gallate]", 42.46]
]}

1 = C[C@]12C[C@@H](O)[C@@H]3C[C@@]1(O[C@@H]1O[C@H](CO)[C@@H](O)[C@H](O)[C@H]1O)[C@@]3(COC(=O)c1ccccc1)C(=O)O2
2 = COc1c2c(cc3oc(CO[C@@H]4O[C@H](CO)[C@@H](O)[C@H](O)[C@H]4O)cc(=O)c13)O[C@H](C(C)(C)O)C2
Data request: Identify the entry with the larger % inhibition. Options: 1 and 2 Your choice should be expressed through its label.
Data returned: 2
(2: -1.55%, 1: -5.5%)

----------
target: AKR1C1 (Homo sapiens); assay: Enzyme activity (NADPH) assay with s-tetralol, recombinant GST-AKR1C1; assay type: biochemical; parameters: made in house; host or cells: Escherichia coli JM109; settings: 2 μM compound; Supplementary Table 1; CON 0.0122
Measured Quantity: slope

Worked examples follow.
{"columns": ["Compound", "slope"],
 "data": [
  ["Oc1cc(O)c2c(c1)O[C@H](c1ccc(O)c(O)c1)[C@H](O)C2 [Epicatechin]", 0.0136],
  ["O=c1c(O[C@@H]2O[C@H](CO)[C@H](O)[C@H](O)[C@H]2O)c(-c2ccc(O)c(O)c2)oc2cc(O)cc(O)c12 [Hyperoside]", 0.0123],
  ["C[C@H]1O[C@@H](O[C@H]2CC[C@@]3(C)[C@@H](CC[C@]4(C)[C@@H]3C=C[C@]35OC[C@@]6(CCC(C)(C)C[C@H]63)[C@H](O)C[C@]54C)[C@]2(C)CO)[C@H](O)[C@@H](O[C@@H]2O[C@H](CO)[C@@H](O)[C@H](O)[C@H]2O)[C@H]1O [Saikosaponin D]", 0.0115],
  ["COc1cc2c(c(OC)c1OC)-c1c(cc3c(c1OC)OCO3)C[C@H](C)[C@@](C)(O)C2 [Schisandrol B]", 0.0137]
]}

P = O=c1c(-c2ccc(O)cc2)coc2cc(O)ccc12 [Daidzein]
Q = COc1ccc(-c2oc3cc(O)cc(O)c3c(=O)c2O)cc1 [Kaempferide]
R = COc1cc2c(=O)c(-c3ccc(O)cc3)coc2cc1O[C@@H]1O[C@H](CO)[C@@H](O)[C@H](O)[C@H]1O [Glycitin]
Data request: Exam item: list the entries in increasing order of slope. Respond with an ordered listing of the labels, as requested.
Data returned: R, P, Q

----------
biological target: AKR1C1 (Homo sapiens); assay: Enzyme activity (NADPH) assay with s-tetralol, recombinant GST-AKR1C1; format: biochemical; set-up: made in house; host or cells: Escherichia coli JM109; settings: 2 μM compound; Supplementary Table 1; CON = 1; read-out: ratio (activity relative to CON)
Measured Quantity: remaining activity at 2 µM (%)

{"columns": ["Compound", "remaining activity at 2 µM [%]"],
 "data": [
  ["O=c1c(-c2ccc(O)cc2)coc2cc(O[C@@H]3O[C@H](CO)[C@@H](O)[C@H](O)[C@H]3O)cc(O)c12", 106],
  ["COc1cc(-c2oc3cc(O)cc(O)c3c(=O)c2O)ccc1O", 102],
  ["COc1cc2c(c(OC)c1OC)-c1c(cc3c(c1OC)OCO3)C[C@H](C)[C@@](C)(O)C2", 112],
  ["O=c1c(O[C@@H]2O[C@H](CO)[C@H](O)[C@H](O)[C@H]2O)c(-c2ccc(O)c(O)c2)oc2cc(O)cc(O)c12 [Hyperoside]", 101]
]}

----------
biological target: AKR1C1 (Homo sapiens); test: Enzyme activity (NADPH) assay with s-tetralol, recombinant GST-AKR1C1; type: biochemical; set-up: made in house; host or cells: Escherichia coli JM109; conditions: 2 μM compound; Supplementary Table 1; CON 192.295568
Measured Quantity: enzyme activity (nmol/min/mg)

Recorded results for 3 molecules are shown here.
{"columns": ["Molecule", "Measured Quantity", "Observed Measurement"],
 "data": [
  ["COc1cc(O)c2c(c1)C(=O)c1cc(C)cc(O)c1C2=O", "enzyme activity", 201.0772],
  ["O=c1ccc2cc3ccoc3cc2o1", "enzyme activity", 182.8834],
  ["Oc1cc(O)c2c(c1)O[C@H](c1ccc(O)c(O)c1)[C@H](O)C2 [Epicatechin]", "enzyme activity", 214.5874]
]}

A = C[C@@H]1O[C@@H](O[C@@H]2[C@@H](O)[C@H](OCCc3ccc(O)c(O)c3)O[C@H](CO)[C@H]2OC(=O)/C=C/c2ccc(O)c(O)c2)[C@H](O)[C@H](O)[C@H]1O [Acteoside]
B = C=C1C(=O)O[C@@H]2/C=C(\C)CC/C=C(\C)CC[C@@H]12 [Costundide]
Data request: For A and B , which recorded enzyme activity is lower? Give the label under which the chosen entry appears.
Data returned: B
(B: 114.4767 nmol/min/mg, A: 194.5022 nmol/min/mg)

a = COc1ccc(-c2oc3cc(O)cc(O)c3c(=O)c2O)cc1 [Kaempferide]
b = O=C1C[C@@H](c2ccc(O[C@@H]3O[C@H](CO)[C@@H](O)[C@H](O)[C@H]3O)cc2)Oc2cc(O)ccc21
Data request: Would you mind telling me which has the lower recorded enzyme activity between a and b ? Mark your answer with the label of the selected entry.
Data returned: b
(b: 59.5351 nmol/min/mg, a: 181.9828 nmol/min/mg)

I = CC1(C)C=Cc2c(ccc3c2OC[C@@H](c2ccc(O)cc2O)C3)O1
II = O=c1c(O)c(-c2ccccc2)oc2cc(O)cc(O)c12 [3,5,7-Trihydroxyflavone]
Data request: Hi, I'm comparing two records. Which one has the lower enzyme activity, I or II ? # respond with the chosen item's label
Data returned: II
(II: 146.2707 nmol/min/mg, I: 215.1279 nmol/min/mg)

----------
molecular target: AKR1C1 (Homo sapiens); experiment: Enzyme activity (NADPH) assay with s-tetralol, recombinant GST-AKR1C1; type: biochemical; design: made in house; host or cells: Escherichia coli JM109; conditions: 2 μM compound; Supplementary Table 1; CON 0.0122
Measured Quantity: slope

{"columns": ["Compound", "Measured On", "Observed Measurement"],
 "data": [
  ["COc1ccc2c(c1)CC=C(CO)c1cc3c(cc1-2)OCO3 [Tenuifolin]", "AKR1C1 (Homo sapiens)", 0.007214]
]}

I = COc1cc(C[C@H]2C(=O)OC[C@@H]2Cc2ccc(OC)c(OC)c2)ccc1O [Arctigenin]
II = O=c1c(O[C@@H]2O[C@H](CO)[C@@H](O)[C@H](O)[C@H]2O)c(-c2ccc(O)c(O)c2)oc2cc(O)cc(O)c12 [Isoquercitrin]
Data request: Between I and II , which one shows the smaller slope number? Please reply using the label of the selected record.
Data returned: II
(II: 0.007797, I: 0.0129)

I = COc1ccc(-c2coc3cc(O)ccc3c2=O)cc1O [Calycosin]
II = COc1c(O)cc(O)c2c(=O)cc(-c3ccccc3)oc12 [Wogonin]
Data request: Hi there! Just curious which has the higher slope between I and II . Pick one and reply with its label.
Data returned: I

----------
Molecular target: AKR1C1 (Homo sapiens)
Sequence (Q04828 1-323): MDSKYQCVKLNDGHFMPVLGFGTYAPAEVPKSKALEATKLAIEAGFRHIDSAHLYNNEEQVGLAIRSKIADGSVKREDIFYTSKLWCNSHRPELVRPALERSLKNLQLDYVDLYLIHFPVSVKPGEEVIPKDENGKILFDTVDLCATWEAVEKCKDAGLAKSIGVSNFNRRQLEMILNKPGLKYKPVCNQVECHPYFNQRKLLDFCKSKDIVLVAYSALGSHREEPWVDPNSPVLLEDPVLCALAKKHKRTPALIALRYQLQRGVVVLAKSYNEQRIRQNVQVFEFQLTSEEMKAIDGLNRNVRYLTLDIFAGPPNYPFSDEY
Assay: Enzyme activity (NADPH) assay with s-tetralol, recombinant GST-AKR1C1;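 note: GST-fused AKR1C1 expressed in E. coli and purified by glutathione affinity, control wells received DMSO instead of compound, duplicate samples from a single experiment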
Assay type: biochemical
Design: made in house; host or cells: Escherichia coli JM109
Conditions: 2 μM compound; Supplementary Table 1; CON 0.0122
Measured Quantity: slope

{"columns": ["Compound", "Measured On", "Observed Measurement"],
 "data": [
  ["C[C@@H]1C(=O)O[C@H]2C[C@@]34[C@H]5C[C@@H](C(C)(C)C)[C@]36[C@@H](OC(=O)[C@@H]6O)O[C@@]4(C(=O)O5)[C@]21O [Ginkgolide A]", "AKR1C1 (Homo sapiens)", 0.008406]
]}

1 = O=C(/C=C/c1ccc(O)cc1)CC(=O)/C=C/c1ccc(O)cc1
2 = COc1cc(C(=O)OCCCCN=C(N)N)cc(OC)c1O.Cl [Leonurine hydrochloride]
Data request: Would you let me know which has the greater slope value, 1 or 2 ? Answer with the label corresponding to your selection.
Data returned: 1
(1: 0.0114, 2: 0.007226)

a = COc1c(O[C@@H]2O[C@H](C(=O)O)[C@@H](O)[C@H](O)[C@H]2O)cc(O)c2c(=O)cc(-c3ccccc3)oc12 [Wogonoside]
b = O=C1C[C@@H](c2ccc(O[C@@H]3O[C@H](CO)[C@@H](O)[C@H](O)[C@H]3O)cc2)Oc2cc(O)ccc21
Data request: Compare reported slope values for a and b . Which is lower? Output the label that corresponds to your choice.
Data returned: b
